- Tested on: IGROV1 ovarian
- test_details: NCI-60 one-dose screen, 48 h (100 = growth as untreated, 0 = no growth, -100 = all killed)
- experimental_parameters: 10 µM unless noted
This is part of a sample that, as a whole, favours compounds with a hit. Of some 83,000 tested, about 20% had one in any assay. Activity calls are given as the source filed them. How the source made its calls: active means growth percent below 10; inactive means the rest.
Below, each entry is listed with its recorded growth.

INSERT INTO results (input_smiles, measured_result) VALUES
  ('CN(C)c1ccc(-c2c(NC(C)(C)C)nc3c(OCCc4ccccc4)cccn23)cc1', '23.3% (inactive)'),
  ('Cc1cc(=O)oc2cc(OCCCOc3ccc(/C=C/C(=O)Nc4ccc(Cl)cc4)cc3)ccc12', '73.2% (inactive)');

# input Dear colleague, please send me the reported growth for `COc1ccc(C(=O)/C=C/c2ccc(OCc3ccc(C)cc3)c(OC)c2)cc1OC` when you can.
# output 84% (inactive)

====

Below, each entry is listed with its recorded growth.
- Test system: OVCAR-8 ovarian
- test_details: NCI-60 one-dose screen, 48 h (100 = growth as untreated, 0 = no growth, -100 = all killed)
- experimental_parameters: 10 µM unless noted
This is part of a sample that, as a whole, favours compounds with a hit. Of some 83,000 tested, about 20% had one in any assay. Calls of active or inactive are those of the source. How the source made its calls: active means growth percent below 10; inactive means the rest.

INSERT INTO measurements (input_smiles, endpoint, measured_result) VALUES
  ('Cc1ccc2ccc3ccc(C)nc3c2n1.Cc1ccc2ccc3ccc(C)nc3c2n1.Oc1c(Cl)cc(Cl)c2ccc(CN3CCCCC3)nc12.[Ru]', 'growth', '-75.4% (active)'),
  ('CN(C)CCCNc1c2ccc(Cl)cc2nc2c1oc1ccc(Cl)cc12', 'growth', '-78.6% (active)');

Okay, now this compound:
# input Dear colleague, please send me the reported growth for `COc1ccc(NC2=CC(=O)C(C)=C(C)C2=O)cc1` when you can.
# output 79.1% (inactive)

====

- System: NCI/ADR-RES ovarian
- test_details: NCI-60 one-dose screen, 48 h (100 = growth as untreated, 0 = no growth, -100 = all killed)
- experimental_parameters: 10 µM unless noted
The panel holds about 83,000 compounds, 20% with a hit somewhere; the sample as a whole holds those more often. Active and inactive are the calls of the source. How the source made its calls: active means growth percent below 10; inactive means the rest.
endpoint: growth

Known results for compounds:
INSERT INTO measurements (compound, endpoint, measured_result) VALUES
  ('COc1cc(OC)c(C2C(Cl)C(=O)N2Nc2ncnc3ccccc23)cc1OC (stereo not given)', 'growth', '105% (inactive)'),
  ('COc1cc(OC)c(C2SCC(=O)N2Nc2ncnc3ccccc23)cc1OC (stereo not given)', 'growth', '104% (inactive)'),
  ('CCN1C(=S)N(CC)C2C1NN=C1SC(c3ccccc3)=CC(=O)N12 (stereo not given)', 'growth', '99.6% (inactive)'),
  ('Clc1ccc2c(NCCCn3ccnc3)c3oc4ccc(Cl)cc4c3nc2c1', 'growth', '74.1% (inactive)'),
  ('O=C(CSc1nnc(-c2ccc3nc(-c4ccc(Cl)cc4)[nH]c3c2)o1)Nc1ccc(C(=O)/C=C/c2ccc(Cl)cc2)cc1', 'growth', '105% (inactive)'),
  ('C#Cc1nc(C2=C(C)C(OC(C)=O)/C(=N/OC(C)=O)C2)cs1 (stereo not given)', 'growth', '-5.63% (active)'),
  ('CCCC(=O)NC(c1ccc2c(c1)OC(F)(F)O2)c1cc(C)c2cccnc2c1O (stereo not given)', 'growth', '18.8% (inactive)'),
  ('Cc1ccc(-c2nc(C(Cl)Cl)nc3cc(-c4ccccc4)nn23)cc1', 'growth', '13.5% (inactive)');

# input Consider the compound O=C1Nc2ccccc2Oc2ccc(S(=O)(=O)CC3CO3)cc21 (stereo not given) tested on NCI/ADR-RES ovarian; state its growth.
# output 98.2% (inactive)

# input Consider the compound C#Cc1nc(C2=C(C)C(OC(=O)CCC(=O)O)CC2)cs1 (stereo not given) tested on NCI/ADR-RES ovarian; state its growth.
# output 89.7% (inactive)

====

- Tested on: NCI-H226 lung
- test_details: NCI-60 one-dose screen, 48 h
- experimental_parameters: 10 µM unless noted
Compounds without any hit were thinned out: in the full panel of roughly 83,000, 20% have a hit. Calls of active or inactive are those of the source. The calls were made as follows: active = growth percent below 10; inactive = the rest.
Please reply with one of these outcomes: label 1 (active), label 0 (inactive)

# input Please indicate how the test categorized `N#Cc1c(-c2ccc(Cl)cc2)nc(SCc2ccccc2)nc1N1CCNCC1` .
# output label 0

# input Please indicate how the test categorized `Clc1ccc2c(NCCCn3ccnc3)c3oc4ccccc4c3nc2c1` .
# output label 0

# input Please indicate how the test categorized `COc1ccc(/C=C/C(=O)c2ccc(NC(=O)CSc3nnc(-c4ccc5nc(-c6ccc(Cl)cc6)[nH]c5c4)o3)cc2)cc1` .
# output label 0

# input Please indicate how the test categorized `COc1ccc(/C=C2\SC(=Nc3cc(C)[nH]n3)NC2=O)cc1` .
# output label 0

# input Please indicate how the test categorized `C#Cc1nc(C2=C(C)C(=O)/C(=N/OC(C)=O)C2)cs1` .
# output label 0

# input Please indicate how the test categorized `COc1ccccc1C(=O)CSc1nc(Nc2ccc(S(N)(=O)=O)cc2)c2ccccc2n1` .
# output label 0

# input Please indicate how the test categorized `Clc1ccc2oc3c(NCCCN4CCOCC4)c4ccccc4nc3c2c1` .
# output label 0

# input Please indicate how the test categorized `CN1CCN(Cc2ccc(NC(=O)c3cncc(C#Cc4cnc5ccc(N6CCSCC6)nn45)c3)cc2C(F)(F)F)CC1` .
# output label 1

# input Please indicate how the test categorized `O=C(Nc1nc2ccc(O)cc2s1)c1cccc(C(F)(F)F)c1` .
# output label 0

# input Please indicate how the test categorized `O=C(N/N=C/c1ccc(Br)s1)c1[nH]c2ccc(Br)cc2c1-c1ccccc1` .
# output label 0

# input Please indicate how the test categorized `NS(=O)(=O)c1ccc(Nc2nc(Nc3ccccc3)nc(-n3nc(-c4ccccc4)cc3-c3ccccc3)n2)cc1` .
# output label 0

# input Please indicate how the test categorized `COc1ccc(Cc2nn(CC(=O)N/N=C/c3ccc(Cl)cc3)c(=O)c3c(C)noc23)cc1` .
# output label 0

# input Please indicate how the test categorized `CC(C)(C)Nc1nc2c(OCCc3ccccc3)cccn2c1-c1ccc(O)cc1` .
# output label 0

# input Please indicate how the test categorized `COc1cccc(OC)c1-c1nnn(C)c1C(=S)N1CCN(c2ccc([N+](=O)[O-])cc2Cl)CC1` .
# output label 0

# input Please indicate how the test categorized COC1CCN(Cc2ccc3c(NNC(=O)c4cnccn4)nc4cc(F)ccc4n23)C1 (stereo not drawn) .
# output label 0

# input Please indicate how the test categorized `O=C1Nc2cc(Cl)ccc2/C1=C\c1ccc(OCc2ccc(Br)cc2F)cc1` .
# output label 1

# input Please indicate how the test categorized `CC(=O)c1ccc(Nc2nc(SC(C)C)nc(-c3ccccc3)c2C#N)cc1` .
# output label 0

# input Please indicate how the test categorized COc1cc(OC)c(C2SCC(=O)N2Nc2ncnc3ccccc23)cc1OC (stereo not drawn) .
# output label 0

====

- Tested on: SK-OV-3 ovarian
- test_details: NCI-60 one-dose screen, 48 h
- experimental_parameters: 10 µM unless noted
The panel holds about 83,000 compounds, 20% with a hit somewhere; the sample as a whole holds those more often. Active and inactive are the calls of the source. The calls were made as follows: active = growth percent below 10; inactive = the rest.
Please reply with one of these outcomes: active, inactive

INSERT INTO assay_data (compound, assayed_system, assigned_category) VALUES
  ('COc1cc2nc(-c3ccc(Cl)cc3)cc(OCCCNCC3CCCO3)c2cc1OC (centres undefined)', 'SK-OV-3 ovarian', 'inactive'),
  ('COc1cc(/C=C/C(=O)c2cc(OC)c(OC)c(OC)c2)ccc1Oc1nc(NCCO)nc(N2CCOCC2)n1', 'SK-OV-3 ovarian', 'active'),
  ('COc1ccc(COc2ccc(/C=C3/C(=O)Nc4cc(Cl)ccc43)cc2)cc1', 'SK-OV-3 ovarian', 'inactive'),
  ('COc1ccc(-c2cc(C(=O)N=Nc3c(O)[nH]c4ccccc34)c3ccccc3n2)cc1OC', 'SK-OV-3 ovarian', 'inactive'),
  ('CCOC(=O)c1c(Nc2ccccc2)nn2c(N)c(C#N)c(-c3ccc(OC)cc3)nc12', 'SK-OV-3 ovarian', 'inactive');

# input Please indicate how the test categorized `O=C(CSc1nc2sc3c(c2c(=O)n1-c1ccc(Cl)cc1)CCCC3)NNC(=O)Nc1cccc(C(F)(F)F)c1` .
# output inactive

# input Please indicate how the test categorized `CCOC(=O)c1c(Nc2ccccc2)nn2c(N)c(C#N)c(-c3ccc(F)cc3)nc12` .
# output inactive

# input Please indicate how the test categorized `Cc1ccc(/C=C/c2nn3c(-c4ccco4)nnc3s2)cc1C` .
# output inactive

# input Please indicate how the test categorized `NS(=O)(=O)c1cccc(Nc2nc(SCC(=O)c3ccc(Br)cc3)nc3ccccc23)c1` .
# output inactive

# input Please indicate how the test categorized `COc1cc2cc(Oc3ccc(NC(=O)c4cccc(C(F)(F)F)c4)cc3)c(C)nc2cc1OCCN1CCCCC1` .
# output inactive

# input Please indicate how the test categorized Nc1nc(N)c2c(n1)NC(c1ccc(C(F)(F)F)cc1)CC(c1ccc(Nc3nc(NCCO)nc(Nc4ccc(Cl)cc4)n3)cc1)=N2 (centres undefined) .
# output active

# input Please indicate how the test categorized `CS(=O)(=O)c1ccc(-c2nc3ccccn3c2-c2nc3ccc([N+](=O)[O-])cc3[nH]2)cc1` .
# output inactive

# input Please indicate how the test categorized COC1CCN(Cc2ccc3c(NNC(=O)c4cnccn4)nc4cc(F)ccc4n23)C1 (centres undefined) .
# output inactive
